Just for reference, patent US20180000768A1 is where these values come from.

Assay: in vitro
Conditions: human, Caco-2, A-B Permeability Ranking
reported_property: Papp A→B at 2 h, 10 μM

INSERT INTO assay_data (compound, measured_result) VALUES
  ('CC(=O)CC(c1ccccc1)c1c(O)c2ccccc2oc1=O (stereo not shown)', '> 1 ×10⁻⁶ cm/s');

---

Experiment: in vitro permeability in Caco2 cells
Conditions: human, Caco-2
reported_property: recovery at 2 h, 10 μM (%)

INSERT INTO results (molecule, measured_result) VALUES
  ('[2H]C(c1ccc(-c2ccc3c(cnn3C)c2)cc1)N(C(=O)C1CCCCC1)c1cc(F)cc(/C=C/C(=O)OC)c1 (centres unmarked)', 69.9),
  ('COC(=O)/C=C/c1cccc(N(Cc2ccc(-c3ccc(N(C)C)cc3)cc2)C(=O)C2CCCCC2)c1', 150),
  ('CNC(=C[N+](=O)[O-])NCCSCc1ccc(CN(C)C)o1', 92.7),
  ('[2H]C(c1ccc(-c2ccc(N(C)C)cc2)cc1)N(C(=O)[C@@H]1C[C@@H]2CC[C@H]1C2)c1cc(F)cc(/C=C/C(=O)OC)c1 (some centres unmarked)', 192),
  ('[2H]C(c1ccc(-c2ccc3c(cnn3C)c2)cc1F)N(C(=O)C1CCCCC1)c1cccc(/C=C/C(=O)OC)c1 (centres unmarked)', 67.1);

---

Test: in vitro permeability in Caco2 cells
Conditions: human, Caco-2
reported_property: Papp B→A at 2 h, 10 μM (×10⁻⁶ cm/s)

INSERT INTO assay_data (molecule, reported_property, u, measured_result) VALUES
  ('COC(=O)/C=C/c1cccc(N(Cc2ccc(-c3ccc(N(C)C)cc3)cc2)C(=O)C2CCCCC2)c1 [Fexaramine]', 'Papp B→A at 2 h, 10 μM', '×10⁻⁶ cm/s', 0.77),
  ('[2H]C(c1ccc(-c2ccc3c(cnn3C)c2)cc1)N(C(=O)C1CCCCC1)c1cc(F)cc(/C=C/C(=O)OC)c1 (centres unmarked) [NSSK 00096]', 'Papp B→A at 2 h, 10 μM', '×10⁻⁶ cm/s', 0.0399),
  ('CNC(=C[N+](=O)[O-])NCCSCc1ccc(CN(C)C)o1 [Ranitidine]', 'Papp B→A at 2 h, 10 μM', '×10⁻⁶ cm/s', 0.922),
  ('[2H]C(c1ccc(-c2ccc(N(C)C)cc2)cc1)N(C(=O)[C@@H]1C[C@@H]2CC[C@H]1C2)c1cc(F)cc(/C=C/C(=O)OC)c1 (some centres unmarked) [NSSK 00024]', 'Papp B→A at 2 h, 10 μM', '×10⁻⁶ cm/s', 0.23),
  ('[2H]C(c1ccc(-c2ccc3c(cnn3C)c2)cc1F)N(C(=O)C1CCCCC1)c1cccc(/C=C/C(=O)OC)c1 (centres unmarked) [NSSK 00089]', 'Papp B→A at 2 h, 10 μM', '×10⁻⁶ cm/s', 0.064);

---

Assay: in vitro
Conditions: human, Caco-2
reported_property: efflux ratio at 2 h, 10 μM

INSERT INTO results (molecule, reported_property, measured_result) VALUES
  ('CC(=O)CC(c1ccccc1)c1c(O)c2ccccc2oc1=O (stereo not shown)', 'efflux ratio at 2 h, 10 μM', 0.695);

---

Experiment: in vitro permeability in Caco2 cells
Settings: human, Caco-2, Mean Papp, A-B, Caco2 cells, assay conc. 10 μM, 2 hour incubation
reported_property: Papp A→B at 2 h, 10 μM (×10⁻⁶ cm/s)

INSERT INTO results (compound, u, measured_result) VALUES
  ('[2H]C(c1ccc(-c2ccc3c(cnn3C)c2)cc1)N(C(=O)C1CCCCC1)c1cc(F)cc(/C=C/C(=O)OC)c1 (centres unmarked)', '×10⁻⁶ cm/s', 0.0104),
  ('[2H]C(c1ccc(-c2ccc3c(cnn3C)c2)cc1F)N(C(=O)C1CCCCC1)c1cccc(/C=C/C(=O)OC)c1 (centres unmarked)', '×10⁻⁶ cm/s', 0.0962),
  ('CNC(=C[N+](=O)[O-])NCCSCc1ccc(CN(C)C)o1', '×10⁻⁶ cm/s', 0.274),
  ('[2H]C(c1ccc(-c2ccc(N(C)C)cc2)cc1)N(C(=O)[C@@H]1C[C@@H]2CC[C@H]1C2)c1cc(F)cc(/C=C/C(=O)OC)c1 (some centres unmarked)', '×10⁻⁶ cm/s', 0.0294),
  ('COC(=O)/C=C/c1cccc(N(Cc2ccc(-c3ccc(N(C)C)cc3)cc2)C(=O)C2CCCCC2)c1', '×10⁻⁶ cm/s', 0.597);
